In this section, each of the sequences is paired with its reported phosphorylation enrichment.
Target: Fyn (UniProt P06241)
Sequence (P06241 whole entry, looked up): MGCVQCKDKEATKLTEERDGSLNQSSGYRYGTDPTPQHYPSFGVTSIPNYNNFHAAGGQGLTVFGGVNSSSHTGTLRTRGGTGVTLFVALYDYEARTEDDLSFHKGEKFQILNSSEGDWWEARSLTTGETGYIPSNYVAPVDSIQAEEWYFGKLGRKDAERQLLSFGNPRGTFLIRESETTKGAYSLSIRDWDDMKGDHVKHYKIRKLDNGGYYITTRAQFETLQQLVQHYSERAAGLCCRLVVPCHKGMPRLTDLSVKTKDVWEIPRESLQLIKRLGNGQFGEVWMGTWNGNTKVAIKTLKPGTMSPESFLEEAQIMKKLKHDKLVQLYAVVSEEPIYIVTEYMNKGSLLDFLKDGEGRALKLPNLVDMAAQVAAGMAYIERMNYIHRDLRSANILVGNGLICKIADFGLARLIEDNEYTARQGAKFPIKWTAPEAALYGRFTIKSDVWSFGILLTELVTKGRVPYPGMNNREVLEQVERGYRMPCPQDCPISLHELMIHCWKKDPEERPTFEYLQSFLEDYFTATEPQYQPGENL
Experiment: phosphorylation enrichment, bacterial display (enrichment ratio); higher = better substrate or ligand; peptides without Tyr show the background;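 also: 11-residue human phosphosite peptides and single-mutation variants displayed on the E. coli surface, counted by deep sequencing, each peptide's frequency after selection divided by its frequency in the unselected input library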;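 also: frequency after pTyr selection over input frequency; kinase dosed for 20-30% of maximal phosphorylation in three min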

[
  {
    "chain": "KLPYPYDDPFS [GPX2_Y127]",
    "phosphorylation enrichment": 0.534
  },
  {
    "chain": "CTTIHYYYMCN [TP53_Y234_N235Y]",
    "phosphorylation enrichment": 1.41
  },
  {
    "chain": "PVRIAYDRPRG [SUGP2_Y985]",
    "phosphorylation enrichment": 0.486
  },
  {
    "chain": "SPPPAFTPMSG [ERBB4_Y1056_Y1056F]",
    "phosphorylation enrichment": 0.305
  },
  {
    "chain": "CTTIHYSYMCN [TP53_Y234_N235S]",
    "phosphorylation enrichment": 0.465
  },
  {
    "chain": "LAARYYNWVSF [FLT4_Y1231]",
    "phosphorylation enrichment": 0.654
  },
  {
    "chain": "GIATGYLVLKE [DNMT3B_Y588]",
    "phosphorylation enrichment": 0.385
  },
  {
    "chain": "SAAAIYTVRHP [PMP22_Y117]",
    "phosphorylation enrichment": 5.3
  },
  {
    "chain": "VQVAYYTVMMN [SPATA17_Y84_M86V]",
    "phosphorylation enrichment": 1.7
  },
  {
    "chain": "DEWFLYKMRDI [CPS1_Y879_K875E]",
    "phosphorylation enrichment": 0.486
  },
  {
    "chain": "ILDEAYVMASV [EGFR_Y764]",
    "phosphorylation enrichment": 0.505
  },
  {
    "chain": "DFPGIYSGYDD [POLR1C_Y33_N32I]",
    "phosphorylation enrichment": 6.48
  },
  {
    "chain": "FALAEYTEVKT [ALDH1A3_Y497_YF]",
    "phosphorylation enrichment": 0.719
  },
  {
    "chain": "SKLTIYDARPS [MTM1_Y277]",
    "phosphorylation enrichment": 2.4
  }
]
